experiment: In vitro metabolic stability in plasma; type: in vitro ADME; details: mouse, plasma, male CD-1 mouse plasma, 37 °C, 10 µM test compound, n = 3, ± SD; read-out: t1/2 in Plasma
Square brackets hold non-standard residues; d marks the D form. Peptide text beside a SMILES is read from it. ξ: configuration not given here. ξGly(decyl) = CCCCCCCCCCC(N)C(=O)O
Measured Attribute: half-life (min)
One number for each entry, in min.

Challenge: Fill in: half-life of CCCCCCCCCCC(N)C(=O)NC(CCCCCCCCCC)C(=O)N1CCC[C@H]1C(=O)N1CCC[C@H]1C(=O)N[C@@H](CCC(N)=O)C(=O)N[C@@H](Cc1c[nH]cn1)C(=O)N1CCC[C@H]1C(N)=O (stereo partly drawn) [(1), C12-C12-Pro-Pro-Gln-His-Pro-NH2] (H-[ξGly(decyl)][ξGly(decyl)]PPQHP-NH2) is ___
Response given: 100

---

assay: In vitro metabolic stability in brain homogenate; format: in vitro ADME; conditions: mouse, with POP inhibitor KYP-2047 at 50 µM, male CD-1 mouse brain homogenate, 10 µM test compound, n = 3, read-out: t1/2 in 20% (w/v) Brain Homogenate
Square brackets hold non-standard residues; d marks the D form. Peptide text beside a SMILES is read from it. ξ: configuration not given here. ξGly(decyl) = CCCCCCCCCCC(N)C(=O)O
Measured Attribute: half-life

Challenge: Fill in: half-life of CCCCCCCCCCC(N)C(=O)NC(CCCCCCCCCC)C(=O)N1CCC[C@H]1C(=O)N1CCC[C@H]1C(=O)N[C@@H](CCC(N)=O)C(=O)N[C@@H](Cc1c[nH]cn1)C(=O)N1CCC[C@H]1C(N)=O (stereo partly drawn) [(1), C12-C12-Pro-Pro-Gln-His-Pro-NH2] (H-[ξGly(decyl)][ξGly(decyl)]PPQHP-NH2) is ___
Response given: > 24 h

These entries and their values trace back to paper PMC6680701.
